Just for reference, PubChem BioAssay is where these values come from.

assay: small-molecule binders of probe aInhba, primary screen, biochemical, small-molecule microarray, 635/667 nm fluorescence (AID 1148); details: higher = more signal;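 further: score merges 667nm spot fluorescence with signal-to-noise for antibody binding to printed compounds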
Classes (composite z-score): small value: < -0.1; mid value: ≥ -0.1 and < -0.008; large value: ≥ -0.008

// query Which category does the recorded composite z-score put `COC(=O)C(CC#Cc1ccc2c(c1)[C@]1(C(=O)N2)[C@H](c2ccc(OCCO)cc2)N2[C@H](c3ccccc3)[C@H](c3ccccc3)OC(=O)[C@H]2[C@@H]1C(=O)N1CCN(c2ncccn2)CC1)C(=O)OC` in?
// result large value

---

system: PRMT1 (protein arginine N-methyltransferase 1); assay: PRMT1 binders on small-molecule microarrays, primary screen, biochemical, small-molecule microarray, 635 nm fluorescence (AID 1088); conditions: small-molecule microarray binding, higher = more signal;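 further: binding of Prmt1 protein to compounds spotted on small-molecule microarray slides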
attribute_measured: composite z-score
Could you respond with only the numeric value?

These recorded examples may help you get a feel for the data.
{"molecule": "CC(C)C[C@@H]1NC(=O)[C@@H]2C[C@H](C(=O)NCCCCCC[N+](C)(C)C)[C@H](c3cccc(OCCO)c3)N2C1=O", "composite z-score": 1.58}
{"molecule": "COCC(=C=CC[C@@H](O)c1cccc(OCCO)c1)CCO", "composite z-score": 0.783}
{"molecule": "CCOC(=O)C=Cc1cc(F)ccc1O", "composite z-score": 0.311}
{"molecule": "COCC(=C=CC[C@@H](O)c1ccc(OCCO)cc1)CCO", "composite z-score": 0.271}
{"molecule": "CN(C)C(=O)[C@@]1(Cc2ccccc2)COC(c2ccc(OCCCO)cc2)=N1", "composite z-score": 0.243}
{"molecule": "CC=CC(O)C1C=CC2C(=O)NC(=O)C2N1Nc1ccccn1 (stereo not drawn)", "composite z-score": 1.36}
{"molecule": "CC(C)N1CC=CC23O[C@@H]4/C=C\\CCCOC(=O)C4[C@H]2C(=O)N(CCCCCCO)[C@@H]3C1=O (stereo partly drawn)", "composite z-score": 0.529}

// moving on: another record for composite z-score
Item: `C=C(COC)C(=O)CC[C@H](OC(=O)c1cccnc1)c1ccc(CO)o1` | composite z-score: 1.33

---

experiment: binders of probe aFST on microarray, primary screen, stem cell growth factor project, biochemical, small-molecule microarray, fluorescence 635/667 (AID 1086); settings: higher = more signal;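 further: score merges 667 nm fluorescence with signal-to-noise of each printed compound spot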
Think of 0.2 as a floor: if composite z-score stands on it or above, it is YES; beneath it, NO.

// query Item `[N-]=[N+]=NCc1ccccc1[C@@H]1OC(c2ccc(OCCCO)cc2)=N[C@]1(Cc1ccccc1)C(=O)NCCN1CCOCC1` with composite z-score of 0.2 or above?
// result YES

// query Item CCN(CC)c1ccc(N2CC=CC34O[C@@H]5/C=C\CCC(C)OC(=O)C5[C@H]3C(=O)N(C(C)CO)[C@@H]4C2=O)cc1 (stereo partly drawn) with composite z-score of 0.2 or above?
// result NO

// query Item `CO[C@H]1O[C@H](CO)[C@@H](OC(=O)CCc2ccccc2)[C@H](OC(=O)c2cc3ccccc3[nH]2)[C@H]1OC(=O)c1cc2ccccc2[nH]1` with composite z-score of 0.2 or above?
// result YES

// query Item `[N-]=[N+]=NCc1ccccc1[C@@H]1OC(c2ccc(OCCCO)cc2)=N[C@]1(Cc1ccccc1N=[N+]=[N-])C(=O)N1CCCCC1` with composite z-score of 0.2 or above?
// result YES

// query Item `CC(C)C[C@@H]1NC(=O)[C@H]2C[C@@H](C(=O)NCCCCCN)[C@@H](c3cccc(OCCO)c3)N2C1=O` with composite z-score of 0.2 or above?
// result NO

// query Item `CCOC(=O)C1=C[C@@H](c2ccccc2)N(S(=O)(=O)c2ccc(C)cc2)[C@H]1c1ccccc1` with composite z-score of 0.2 or above?
// result NO

// query Item `COc1ccc([Si](C)(C)[C@H]2[C@H](CCO)O[C@@]3(C(=O)N(Cc4ccccc4)c4ccc(N5CCOC5=O)cc43)[C@@H]2C)cc1` with composite z-score of 0.2 or above?
// result NO

// query Item `C=C(/C(=C/C[C@@H](OC(C)=O)c1ccc(CO)o1)c1cc(C(=O)OC)ccc1OC)C(C)C` with composite z-score of 0.2 or above?
// result NO

---

tested on: Inhibin beta A chain (activin A); test: INHBA (activin A) binders on microarrays, primary screen, biochemical, small-molecule microarray, 635 nm fluorescence scan (AID 1107); conditions: small-molecule microarray binding, higher = more signal;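 further: mouse activin A protein probed at 4.33 µg/mL on printed slides; score merges bound-protein fluorescence near 667 nm with spot signal-to-noise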
Think of 1 as a floor: if composite z-score stands on it or above, it is rule met; beneath it, rule not met.

// query Item `Nc1cc(Br)ccc1C(=O)O` with composite z-score of 1 or above?
// result rule not met

// query Item CC=CC(O)C1C=CC2C(=O)NC(=O)C2N1Nc1ccccn1 (configuration not stated) with composite z-score of 1 or above?
// result rule met

// query Item `C=C(C(=O)CC[C@H](OC(=O)c1ccccc1-c1ccccc1C(=O)O)c1ccccc1OCCO)C(C)C` with composite z-score of 1 or above?
// result rule met

// query Item CCN(CC)c1ccc(N2CC=CC34O[C@@H]5/C=C\CCC(C)OC(=O)C5[C@H]3C(=O)N(C(C)CO)[C@@H]4C2=O)cc1 (some centres not stated) with composite z-score of 1 or above?
// result rule met

// query Item `COCCOC(=O)N1C(=O)[C@@]2(c3cc(C#CCCO)ccc31)[C@H](C(=O)N1CCCCCCC1)[C@H]1C(=O)O[C@H](c3ccccc3)[C@H](c3ccccc3)N1[C@@H]2c1ccccc1OCCO` with composite z-score of 1 or above?
// result rule met

// query Item CCCCCCCCCCC(O)C1C=CC2C(=O)N(c3ccccc3)C(=O)C2N1Nc1ccccc1F (configuration not stated) with composite z-score of 1 or above?
// result rule met

// query Item `COCCOC(=O)N1C(=O)[C@@]2(c3ccccc31)[C@H](c1ccccc1OCCO)N1[C@H](c3ccccc3)[C@H](c3ccccc3)OC(=O)[C@H]1[C@@H]2C(N)=O` with composite z-score of 1 or above?
// result rule not met

---

assay: inhibitors of hydroxyurea-induced Chk1 phosphorylation, primary screen, imaging, HeLa, phospho-Chk1 antibody, percent positive cells (AID 1186); conditions: hydroxyurea-induced phospho-Chk1 immunofluorescence imaging, higher = more signal
Readings of z-score for the listed molecules
Could you respond with only the numeric value?

{"molecule": "COC(=O)[C@@]1(Cc2ccc(OC)cc2)[C@H]2c3cc(C(=O)N4CCCC4)n(Cc4ccc(S(C)(=O)=O)cc4)c3C[C@H]2CN1C(=O)c1ccccc1", "assay_value": 0.364}
{"molecule": "CC(=O)N1CC(C(O)C2C=CC3C(=O)NC(=O)C3N2Nc2ccc(Cl)cc2Cl)c2ccccc21 (stereo not drawn)", "assay_value": 0.358}

Item: `COCCOC(=O)N1C(=O)[C@@]2(c3cc(C#CCC(C(=O)OC)C(=O)OC)ccc31)[C@H](C(=O)NC[C@H](O)c1ccccc1)[C@H]1C(=O)O[C@H](c3ccccc3)[C@H](c3ccccc3)N1[C@@H]2c1ccc(OCCO)cc1` | z-score: 0.0558

---

test system: Inhibin beta A chain (activin A); assay: INHBA (activin A) binders on microarrays, primary screen, biochemical, small-molecule microarray, 635 nm fluorescence scan (AID 1107); details: small-molecule microarray binding, higher = more signal;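 further: mouse activin A protein probed at 4.33 µg/mL on printed slides; score merges bound-protein fluorescence near 667 nm with spot signal-to-noise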
Think of 0.4 as a floor: if composite z-score stands on it or above, it is y; beneath it, n.

Reference set (5 entries):
{"molecule": "CS(=O)(=O)CCOC(=O)C1=CC(CCCO)=CC(C2CC2)N(Cc2cccc(OC(F)(F)F)c2)C=C1C(=O)OCCS(C)(=O)=O (centres undefined)", "label_value": "y"}
{"molecule": "O=C1NC(=O)C2C1C=CC(C(O)c1ccccn1)N2Nc1ccc(Cl)cc1Cl (centres undefined)", "label_value": "n"}
{"molecule": "COc1ccc(C(=O)Nc2cccc(CN3C(=O)[C@@]4(O[C@@H](CC(=O)N(CCO)Cc5ccccc5)[C@H]([Si](C)(C)c5ccc(OC)cc5)[C@H]4C)c4ccccc43)c2)cc1", "label_value": "y"}
{"molecule": "O=C(O)[C@H]1C[C@H]2C(=O)N[C@@H](Cc3ccccc3)C(=O)N2[C@H]1c1cccc(OCCO)c1", "label_value": "n"}
{"molecule": "COCCOC(=O)N1C(=O)[C@@]2(c3cc(C#CCNC(N)=O)ccc31)[C@H](c1ccc(O)cc1)N1[C@H](c3ccccc3)[C@H](c3ccccc3)OC(=O)[C@H]1[C@@H]2C(=O)N1CCN(c2ncccn2)CC1", "label_value": "n"}

// query Item `CC(C)(C)OC(=O)CC[C@]12N=C(c3ccc(OCCCO)cc3)O[C@H]1c1ccccc1N(Cc1ccccc1)C2=O` with composite z-score of 0.4 or above?
// result y

// query Item `CC(C)C(=C=CC[C@H](O)c1cccc(OCCO)c1)CCO` with composite z-score of 0.4 or above?
// result n

// query Item `CC(C)C(=C=CC[C@@H](O)c1cccc(OCCO)c1)C[C@@H](O)c1ccccn1` with composite z-score of 0.4 or above?
// result n

// query Item `CCCC=C(CCC)[C@@H](NC(=O)CCc1ccccc1)c1ccc(C(F)(F)F)cc1` with composite z-score of 0.4 or above?
// result y

// query Item `CCCCC=C[C@@H](NC(=O)c1ccccc1)c1ccccc1` with composite z-score of 0.4 or above?
// result y
